- assaySystem: PAK1 (human)
- assay: radiometric filter-binding kinase assay, Kinase HotSpot
- conditionSummary: compound 0.5 µM; ATP 10 µM
parameter: residual activity (%)
Record the value in %, omitting the unit from your answer.

The following molecules have reported results that may help.
Nc1ccc2ncnc(NCCc3ccc(Oc4ccccc4)cc3)c2c1 | 94.9
CO[C@H]1CC2CC[C@@H](C)[C@@](O)(O2)C(=O)C(=O)N2CCCC[C@H]2C(=O)OC([C@H](C)C[C@@H]2CC[C@@H](O)[C@H](OC)C2)CC(=O)[C@H](C)/C=C(\C)[C@@H](O)[C@@H](OC)C(=O)[C@H](C)C[C@H](C)/C=C/C=C/C=C/1C (stereo partly drawn) | 95.6

Next molecule, please.
Given CCC(=O)Nc1ccc2ncnc(Nc3cccc(Br)c3)c2c1 , state its recorded residual activity.
96.3

###

- assaySystem: TXK (human)
- assay: radiometric filter-binding kinase assay, Kinase HotSpot
- conditionSummary: compound 0.5 µM; ATP 10 µM
parameter: residual activity (%)
Record the value in %, omitting the unit from your answer.

The following molecules have reported results that may help.
c1ccc(-c2n[nH]cc2-c2ccnc3ccccc23)nc1 | 89.1
CCC(=O)Nc1ccc2ncnc(Nc3cccc(Br)c3)c2c1 | 90.5
Nc1ncnc2c1c(-c1ccc(Oc3ccccc3)cc1)cn2C1CCCC1 | 17.3
Nc1ncnc2[nH]nc(Nc3ccc(F)cc3)c12 | 67.6
CC#CC(=O)Nc1cc2c(Nc3ccc(F)c(Cl)c3)ncnc2cn1 | 1.66

Given COc1ccc2c(c[n+](C)c3c4cc5c(cc4ccc23)OCO5)c1OC , state its recorded residual activity.
100

###

- assaySystem: UniProtKB Q9UQB9
- Sequence (Q9UQB9 whole entry, looked up): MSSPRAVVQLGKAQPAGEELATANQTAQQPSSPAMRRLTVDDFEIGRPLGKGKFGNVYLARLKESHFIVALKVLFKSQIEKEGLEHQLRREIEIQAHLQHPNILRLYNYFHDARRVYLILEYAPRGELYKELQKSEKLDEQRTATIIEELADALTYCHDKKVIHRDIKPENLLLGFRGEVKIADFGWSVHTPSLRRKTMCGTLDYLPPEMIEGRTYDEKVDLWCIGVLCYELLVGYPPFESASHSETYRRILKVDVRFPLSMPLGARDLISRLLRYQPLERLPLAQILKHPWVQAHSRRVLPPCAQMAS
- assay: radiometric filter-binding kinase assay, Kinase HotSpot
- conditionSummary: compound 0.5 µM; ATP 10 µM
parameter: residual activity (%)
Record the value in %, omitting the unit from your answer.

The following compounds have reported results that may help.
Oc1cccc(-c2nc(N3CCOCC3)c3oc4ncccc4c3n2)c1 | 98.1
O=C(Nc1cccc(Nc2nccc(Nc3cccc(C(F)(F)F)c3)n2)c1)C1CC1 | 80.8
Nc1ccc2ncnc(NCCc3ccc(Oc4ccccc4)cc3)c2c1 | 96
O=c1cc(N2CCOCC2)oc2c1ccc1ccccc12 | 107
CC#CC(=O)Nc1cc2c(Nc3ccc(F)c(Cl)c3)ncnc2cn1 | 95.9
Cc1ccc(NC2=CC(=O)c3sc(C)nc3C2=O)cc1 | 90.7
CCN(CC)CCNC(=O)c1c(C)[nH]c(/C=C2\C(=O)Nc3ccc(Cl)cc32)c1C | 74.7
CCCC(=O)Oc1ccc2[nH]c(C(=O)c3cc4ccccc4[nH]3)cc2c1 | 94.9
CNc1cc2c(Nc3cccc(Br)c3)ncnc2cn1 | 85.9
Cc1ccc(Nc2nccc(N(C)c3ccc4c(C)n(C)nc4c3)n2)cc1S(N)(=O)=O | 70.9

Find the measured residual activity: item CC[n+]1c(/C=C/N(C)c2ccccc2)n(-c2ccccc2)c2ccc(-c3nc4ccccc4s3)cc21 , target or system UniProtKB Q9UQB9.
91.3

Can you check COc1cc2ncnc(Nc3cccc(Cl)c3)c2cc1OC next?
85.8

Can you check N#CC(C#N)=C(N)/C(C#N)=C/c1ccc(O)cc1 next?
101

Can you check Nc1ncnc2c1c(-c1ccc(Oc3ccccc3)cc1)cn2C1CCCC1 next?
95

Can you check Cc1[nH]c(/C=C2\C(=O)Nc3ccc(S(=O)(=O)N(C)c4cccc(Cl)c4)cc32)c(C)c1C(=O)N1CCN(C)CC1 next?
37.9

Can you check CO[C@H]1CC2CC[C@@H](C)[C@@](O)(O2)C(=O)C(=O)N2CCCC[C@H]2C(=O)OC([C@H](C)C[C@@H]2CC[C@@H](O)[C@H](OC)C2)CC(=O)[C@H](C)/C=C(\C)[C@@H](O)[C@@H](OC)C(=O)[C@H](C)C[C@H](C)/C=C/C=C/C=C/1C (stereo not given in full) next?
95.6

Can you check c1ccc(-c2n[nH]cc2-c2ccnc3ccccc23)nc1 next?
100

Can you check Nc1ncnc2[nH]nc(Nc3ccc(F)cc3)c12 next?
96

Can you check CCN(CC)C(=O)c1ccc(Nc2nc(OCC3CCCCC3)c3nc[nH]c3n2)cc1 next?
20.7

Can you check CC(C)N(CCC(=O)c1ccc2ccccc2c1)Cc1ccccc1 next?
97.5

###

- assaySystem: AURKA (human)
- assay: radiometric filter-binding kinase assay, Kinase HotSpot
- conditionSummary: compound 0.5 µM; ATP 10 µM
Respond with criterion met for residual activity values of 90% and above, criterion not met for values below.

Please review the entries below; each comes with its answer.
N#C/C(=C(/N)Sc1ccc(N)cc1)c1ccccc1C(F)(F)F | criterion met
COc1ccc(COc2ccc(Cc3cnc(N)nc3N)cc2OC)cc1 | criterion met
CO[C@H]1CC2CC[C@@H](C)[C@@](O)(O2)C(=O)C(=O)N2CCCC[C@H]2C(=O)OC([C@H](C)C[C@@H]2CC[C@@H](O)[C@H](OC)C2)CC(=O)[C@H](C)/C=C(\C)[C@@H](O)[C@@H](OC)C(=O)[C@H](C)C[C@H](C)/C=C/C=C/C=C/1C (some centres undefined) | criterion not met
Cc1ccc(S(=O)(=O)/C=C/C#N)cc1 | criterion met
O=C1Nc2ccc(Cl)cc2/C1=C/c1cc(Cl)c(O)c(Cl)c1 | criterion not met

Say whether Nc1ccc2ncnc(NCCc3ccc(Oc4ccccc4)cc3)c2c1 shows residual activity of 90% or more.
criterion met

Can you check Cc1[nH]c(/C=C2\C(=O)Nc3ccc(S(=O)(=O)N(C)c4cccc(Cl)c4)cc32)c(C)c1C(=O)N1CCN(C)CC1 next?
criterion not met

Can you check c1ccc(-c2n[nH]cc2-c2ccnc3ccccc23)nc1 next?
criterion met

###

- assaySystem: UniProt:Q9UM73
- Sequence (Q9UM73 whole entry, looked up): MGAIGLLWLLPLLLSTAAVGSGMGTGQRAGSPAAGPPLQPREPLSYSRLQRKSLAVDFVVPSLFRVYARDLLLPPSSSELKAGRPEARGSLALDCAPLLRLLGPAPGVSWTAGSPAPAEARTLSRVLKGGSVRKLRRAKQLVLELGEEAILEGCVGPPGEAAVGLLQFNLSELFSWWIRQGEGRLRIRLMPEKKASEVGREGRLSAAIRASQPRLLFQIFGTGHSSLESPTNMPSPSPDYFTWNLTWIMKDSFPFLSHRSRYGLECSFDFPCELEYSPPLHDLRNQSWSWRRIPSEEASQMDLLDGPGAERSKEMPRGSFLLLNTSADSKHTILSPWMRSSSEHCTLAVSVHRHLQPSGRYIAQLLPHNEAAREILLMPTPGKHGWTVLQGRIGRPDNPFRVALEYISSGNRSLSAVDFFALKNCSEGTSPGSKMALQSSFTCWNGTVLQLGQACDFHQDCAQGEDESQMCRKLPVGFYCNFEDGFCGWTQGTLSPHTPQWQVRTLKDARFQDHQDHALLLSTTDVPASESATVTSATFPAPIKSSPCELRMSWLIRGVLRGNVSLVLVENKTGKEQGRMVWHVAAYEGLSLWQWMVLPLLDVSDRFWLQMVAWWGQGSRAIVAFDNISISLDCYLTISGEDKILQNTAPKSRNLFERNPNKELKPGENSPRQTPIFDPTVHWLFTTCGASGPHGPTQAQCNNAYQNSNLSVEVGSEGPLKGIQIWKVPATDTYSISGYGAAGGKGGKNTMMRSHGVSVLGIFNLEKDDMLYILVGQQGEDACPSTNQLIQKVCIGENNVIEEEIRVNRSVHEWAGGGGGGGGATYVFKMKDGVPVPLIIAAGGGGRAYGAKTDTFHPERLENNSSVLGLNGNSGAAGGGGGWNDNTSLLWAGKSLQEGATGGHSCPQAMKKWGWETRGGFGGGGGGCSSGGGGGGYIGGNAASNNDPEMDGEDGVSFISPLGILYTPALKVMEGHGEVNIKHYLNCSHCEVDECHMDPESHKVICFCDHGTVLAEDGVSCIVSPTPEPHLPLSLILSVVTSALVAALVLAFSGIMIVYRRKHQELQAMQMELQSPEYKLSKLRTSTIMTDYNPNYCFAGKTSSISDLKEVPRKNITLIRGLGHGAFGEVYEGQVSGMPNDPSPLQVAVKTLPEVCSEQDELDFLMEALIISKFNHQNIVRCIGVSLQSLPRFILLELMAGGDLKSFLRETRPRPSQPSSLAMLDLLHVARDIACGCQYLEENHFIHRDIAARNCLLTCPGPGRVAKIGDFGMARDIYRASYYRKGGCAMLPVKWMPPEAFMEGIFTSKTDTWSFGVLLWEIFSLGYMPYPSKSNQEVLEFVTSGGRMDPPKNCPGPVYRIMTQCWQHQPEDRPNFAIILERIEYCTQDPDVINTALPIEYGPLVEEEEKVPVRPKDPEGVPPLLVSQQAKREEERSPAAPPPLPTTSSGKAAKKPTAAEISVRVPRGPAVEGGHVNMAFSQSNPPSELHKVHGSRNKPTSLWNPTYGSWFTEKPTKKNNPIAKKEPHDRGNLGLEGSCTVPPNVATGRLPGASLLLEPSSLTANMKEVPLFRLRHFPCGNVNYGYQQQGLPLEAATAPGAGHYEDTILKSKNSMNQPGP
- assay: radiometric filter-binding kinase assay, Kinase HotSpot
- conditionSummary: compound 0.5 µM; ATP 10 µM
Recorded residual activity, one value per entry.
Record the value in %, omitting the unit from your answer.

c1ccc(-c2n[nH]cc2-c2ccnc3ccccc23)nc1 | 111

Given O=C1Nc2ccc(Cl)cc2/C1=C/c1cc(Cl)c(O)c(Cl)c1 , state its recorded residual activity.
65.8

Can you check c1ccc(-c2n[nH]c3c2oc2ccccc23)cc1 next?
95.9

Can you check Cc1ccc(S(=O)(=O)/C=C/C#N)cc1 next?
103

Can you check CC[n+]1c(/C=C/N(C)c2ccccc2)n(-c2ccccc2)c2ccc(-c3nc4ccccc4s3)cc21 next?
99.1

###

Recorded residual activity, one value per entry.
- assaySystem: CAMK1 (human) (UniProt Q14012)
- Sequence (Q14012 whole entry, looked up): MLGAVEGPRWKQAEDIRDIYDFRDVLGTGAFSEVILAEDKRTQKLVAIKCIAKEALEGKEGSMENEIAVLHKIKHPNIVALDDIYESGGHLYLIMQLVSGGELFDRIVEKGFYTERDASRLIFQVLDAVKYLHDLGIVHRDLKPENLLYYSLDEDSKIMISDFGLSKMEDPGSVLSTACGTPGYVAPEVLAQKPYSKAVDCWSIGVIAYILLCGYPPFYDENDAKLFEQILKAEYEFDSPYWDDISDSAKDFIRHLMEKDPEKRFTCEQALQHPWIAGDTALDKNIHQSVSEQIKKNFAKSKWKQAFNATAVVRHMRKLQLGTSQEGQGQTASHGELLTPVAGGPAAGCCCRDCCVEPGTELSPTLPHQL
- assay: radiometric filter-binding kinase assay, Kinase HotSpot
- conditionSummary: compound 0.5 µM; ATP 10 µM
Answer as a quantity: numeral, then unit.

Oc1cccc(-c2nc(N3CCOCC3)c3oc4ncccc4c3n2)c1 | 101%
Nc1ccc2ncnc(NCCc3ccc(Oc4ccccc4)cc3)c2c1 | 107%
CC(=O)c1ccc(N2CCOCC2)cc1O | 102%
CCOC(=O)c1c(C)[nH]c(/C=C2\C(=O)Nc3ccccc32)c1C | 98.1%
CCCC(=O)Oc1ccc2[nH]c(C(=O)c3cc4ccccc4[nH]3)cc2c1 | 98.8%

Next compound, please.
Given O=C1NC(=O)c2c1c1c3ccccc3n3c1c1c2c2ccccc2n1C1CCC3O1 , state its recorded residual activity.
69.7%

###

Recorded residual activity, one value per entry.
- assaySystem: MAP3K7 TAB1 (human) (UniProt O43318+Q15750)
- Sequence (O43318 whole entry, looked up): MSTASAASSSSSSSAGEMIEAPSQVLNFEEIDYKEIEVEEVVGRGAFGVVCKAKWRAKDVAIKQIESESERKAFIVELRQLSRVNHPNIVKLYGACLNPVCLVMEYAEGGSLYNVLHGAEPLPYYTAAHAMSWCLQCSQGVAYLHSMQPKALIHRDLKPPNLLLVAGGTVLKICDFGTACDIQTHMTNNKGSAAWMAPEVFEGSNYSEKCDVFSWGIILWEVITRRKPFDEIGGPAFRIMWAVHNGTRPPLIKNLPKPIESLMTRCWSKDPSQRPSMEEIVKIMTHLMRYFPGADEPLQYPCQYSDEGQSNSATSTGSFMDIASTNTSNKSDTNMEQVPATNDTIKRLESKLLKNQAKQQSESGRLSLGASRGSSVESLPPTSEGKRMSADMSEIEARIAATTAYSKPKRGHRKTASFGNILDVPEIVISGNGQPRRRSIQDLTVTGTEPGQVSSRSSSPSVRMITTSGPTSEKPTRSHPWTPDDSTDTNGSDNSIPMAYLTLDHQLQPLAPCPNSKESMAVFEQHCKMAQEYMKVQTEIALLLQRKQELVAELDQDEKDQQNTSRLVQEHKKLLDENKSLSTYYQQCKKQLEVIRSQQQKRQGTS
- Sequence (Q15750 whole entry, looked up): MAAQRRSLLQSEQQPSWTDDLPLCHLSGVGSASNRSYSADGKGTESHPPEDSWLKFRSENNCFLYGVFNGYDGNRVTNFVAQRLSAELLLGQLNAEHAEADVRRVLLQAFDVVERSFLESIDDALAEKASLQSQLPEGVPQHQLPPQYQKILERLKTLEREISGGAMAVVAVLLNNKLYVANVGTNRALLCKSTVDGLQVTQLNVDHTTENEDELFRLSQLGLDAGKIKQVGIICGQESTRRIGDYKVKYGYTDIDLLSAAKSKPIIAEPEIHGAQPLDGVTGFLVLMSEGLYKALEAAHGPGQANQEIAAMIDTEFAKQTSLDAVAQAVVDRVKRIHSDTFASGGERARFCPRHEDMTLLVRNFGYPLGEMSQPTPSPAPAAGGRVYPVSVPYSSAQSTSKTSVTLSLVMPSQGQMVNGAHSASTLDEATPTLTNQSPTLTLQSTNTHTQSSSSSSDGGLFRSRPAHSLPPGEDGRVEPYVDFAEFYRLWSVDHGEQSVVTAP
- assay: radiometric filter-binding kinase assay, Kinase HotSpot
- conditionSummary: compound 0.5 µM; ATP 10 µM
Record the value in %, omitting the unit from your answer.

Given O=c1cc(N2CCOCC2)oc2c1ccc1ccccc12 , state its recorded residual activity.
98.3

Can you check Nc1ccc2ncnc(NCCc3ccc(Oc4ccccc4)cc3)c2c1 next?
96.2

Can you check COc1cc2ncnc(Nc3cccc(Cl)c3)c2cc1OC next?
96.9

Can you check O=C1Nc2ccc(Cl)cc2/C1=C/c1cc(Cl)c(O)c(Cl)c1 next?
86.8

Can you check CCN(CC)CCNC(=O)c1c(C)[nH]c(/C=C2\C(=O)Nc3ccc(Cl)cc32)c1C next?
3.51

Can you check Nc1ncnc2c1c(-c1ccc(Oc3ccccc3)cc1)cn2C1CCCC1 next?
92.3

Can you check Nc1cccc(-c2cc3c(Oc4cccc(O)c4)ncnc3[nH]2)c1 next?
63

###

- assaySystem: TTK (human) (UniProt P33981)
- Sequence (P33981 whole entry, looked up): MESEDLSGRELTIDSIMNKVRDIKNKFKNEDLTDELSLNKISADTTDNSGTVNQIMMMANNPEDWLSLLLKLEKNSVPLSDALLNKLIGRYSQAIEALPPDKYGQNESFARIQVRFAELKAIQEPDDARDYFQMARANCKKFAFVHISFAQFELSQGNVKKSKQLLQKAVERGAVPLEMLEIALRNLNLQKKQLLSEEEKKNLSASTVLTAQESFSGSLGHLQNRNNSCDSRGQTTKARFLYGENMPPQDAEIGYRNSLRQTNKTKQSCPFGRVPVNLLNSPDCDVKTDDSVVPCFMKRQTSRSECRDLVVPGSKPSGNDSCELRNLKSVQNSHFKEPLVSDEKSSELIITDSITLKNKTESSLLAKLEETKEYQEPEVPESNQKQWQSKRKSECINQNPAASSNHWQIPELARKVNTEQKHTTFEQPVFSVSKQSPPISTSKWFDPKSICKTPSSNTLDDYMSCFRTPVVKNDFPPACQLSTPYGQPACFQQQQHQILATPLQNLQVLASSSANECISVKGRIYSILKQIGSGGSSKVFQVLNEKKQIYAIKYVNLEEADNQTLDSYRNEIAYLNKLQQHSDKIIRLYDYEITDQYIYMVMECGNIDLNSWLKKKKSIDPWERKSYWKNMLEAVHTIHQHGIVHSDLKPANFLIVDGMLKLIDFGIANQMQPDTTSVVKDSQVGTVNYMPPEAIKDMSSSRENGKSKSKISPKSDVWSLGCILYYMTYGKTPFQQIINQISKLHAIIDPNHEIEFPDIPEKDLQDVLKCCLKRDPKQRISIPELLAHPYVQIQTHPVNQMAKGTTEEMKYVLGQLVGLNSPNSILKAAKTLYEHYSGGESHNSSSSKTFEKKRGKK
- assay: radiometric filter-binding kinase assay, Kinase HotSpot
- conditionSummary: compound 0.5 µM; ATP 10 µM
parameter: residual activity (%)
Record the value in %, omitting the unit from your answer.

The following compounds have reported results that may help.
Cc1ccc(NC2=CC(=O)c3sc(C)nc3C2=O)cc1 | 98.9
CC#CC(=O)Nc1cc2c(Nc3ccc(F)c(Cl)c3)ncnc2cn1 | 104
CCN(CC)C(=O)c1ccc(Nc2nc(OCC3CCCCC3)c3nc[nH]c3n2)cc1 | 47.8

Find the measured residual activity: item O=C1NC(=O)C(c2cn(CCCn3ccnc3)c3ccccc23)=C1Nc1ccccc1 , target or system TTK (human) (UniProt P33981).
121

Can you check O=C1NC(=O)c2c1c1c3ccccc3n3c1c1c2c2ccccc2n1C1CCC3O1 next?
76.4

Can you check N#C/C(=C(/N)Sc1ccc(N)cc1)c1ccccc1C(F)(F)F next?
93.6

Can you check CO[C@H]1CC2CC[C@@H](C)[C@@](O)(O2)C(=O)C(=O)N2CCCC[C@H]2C(=O)OC([C@H](C)C[C@@H]2CC[C@@H](O)[C@H](OC)C2)CC(=O)[C@H](C)/C=C(\C)[C@@H](O)[C@@H](OC)C(=O)[C@H](C)C[C@H](C)/C=C/C=C/C=C/1C (stereo partly specified) next?
117

Can you check Nc1ncnc2c1c(-c1ccc(Oc3ccccc3)cc1)cn2C1CCCC1 next?
104

Can you check COc1cc2ncnc(Nc3cccc(Cl)c3)c2cc1OC next?
108

Can you check Oc1cccc(-c2nc(N3CCOCC3)c3oc4ncccc4c3n2)c1 next?
93.3

Can you check Nc1ncnc2[nH]nc(Nc3ccc(F)cc3)c12 next?
96.1

Can you check N#CC(C#N)=C(N)/C(C#N)=C/c1ccc(O)cc1 next?
94.4

Can you check O=C(Nc1cccc(Nc2nccc(Nc3cccc(C(F)(F)F)c3)n2)c1)C1CC1 next?
92.1

Can you check COc1ccc2c(c[n+](C)c3c4cc5c(cc4ccc23)OCO5)c1OC next?
101

Can you check c1ccc(-c2n[nH]c3c2oc2ccccc23)cc1 next?
95.7
